# pKd annotations
- studySystem: T1, PD-L1-His antigen (human, UniProt Q9NZQ7 19-238)
- T1 construct: Human PD-L1 ECD with C-terminal 8xHIS tag, expressed in HEK293F; also called hPDL1-His; human PD-L1-His
- T1 sequence (Q9NZQ7 other isoform, or with tags, fused parts or gaps limits assumed): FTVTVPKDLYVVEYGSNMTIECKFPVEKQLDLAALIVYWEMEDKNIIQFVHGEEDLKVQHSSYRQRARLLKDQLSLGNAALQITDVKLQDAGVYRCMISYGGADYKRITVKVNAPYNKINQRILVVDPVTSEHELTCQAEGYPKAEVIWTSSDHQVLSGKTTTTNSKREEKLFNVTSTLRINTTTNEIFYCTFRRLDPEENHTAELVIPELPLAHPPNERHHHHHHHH
- assayRemarks: SPR (Biacore T200), PD-L1-His immobilised on chip, antibody as mobile phase, 1:1 Binding fit
Convention used: pKd is expressed as -log10 of the molar concentration.

Form: binder = L1-R2-4-36 (antibody, human IgG1, kappa, V domains shown) VH: EVQLVESGGGLVQPGGSLRLSCAASGFTFSDSWIHWVRQAPGKGLEWVGWISPYGGSTYYADDFRHRFTISADTSKNTAYLQMNSLRAEDTAVYYCARRHWPGGFDYWGQGTLVTVSS VL: EIVLTQSPSSLSASVGDRVTITCLASQTIGTWLAWYQQKPGKSPQLLIYAASTLQSGVPSRFSGSGSGTDFTLTISSLQPEDVATYYCQQYYSTPRTFGQGTKVEIKR ; pKd = 9.47

Form: binder = L1-R2-4-55 (antibody, human IgG1, kappa, V domains shown) VH: EVQLVESGGGLVQPGGSLRLSCAASGFTFSDSWIHWVRQAPGKGLEWVGWISPYGGSTYYADGMRSRFTISADTSKNTAYLQMNSLRAEDTAVYYCARRHWPGGFDYWGQGTLVTVSS VL: EIVLTQSPSSLSASVGDRVTITCLASQTIGTWLAWYQQKPGKSPQLLIYAASTLQSGVPSRFSGSGSGTDFTLTISSLQPEDVATYYCQQYYSTPRTFGQGTKVEIKR ; pKd = 9.43

Further cases:
Form: binder = L1-R2-4-71 (antibody, human IgG1, kappa, V domains shown, also called parental anti-PD-L1 antibody L1-R2-4-71) VH: EVQLVESGGGLVQPGGSLRLSCAASGFTFSDSWIHWVRQAPGKGLEWVGWISPYGGSTYYADSYRSRFTISADTSKNTAYLQMNSLRAEDTAVYYCARRHWPGGFDYWGQGTLVTVSS VL: EIVLTQSPSSLSASVGDRVTITCLASQTIGTWLAWYQQKPGKSPQLLIYAASTLQSGVPSRFSGSGSGTDFTLTISSLQPEDVATYYCQQYYSTPRTFGQGTKVEIKR ; pKd = 9.55
